Property: RP-LC retention time; scope: individual compounds
- protocol-summary: gradient 5% acetonitrile 3 min, to 50% in 2 min, to 85% in 15 min, held 3 min, 100 µL/min
- stated-conditions: column: Zorbax Extend-C18 2.1 x 50 mm; eluents: water / acetonitrile, 0.1% formic acid
Please give the number followed by its unit.

input: What value of RP-LC retention time has been reported for the following compound? COc1ccc(NC(=O)C2CCN(c3cncnc3N3CCOCC3)CC2)cc1
output: 605 s

====

This section presents compounds with their documented RP-LC retention time values.
- protocol-summary: gradient 5% acetonitrile 3 min, to 50% in 2 min, to 85% in 15 min, held 3 min, 100 µL/min
- stated-conditions: column: Zorbax Extend-C18 2.1 x 50 mm; eluents: water / acetonitrile, 0.1% formic acid
# output: bare number, implied unit s

compound	measurement-unit	RP-LC retention time
COc1ccccc1NC(=O)C1CCN(S(=O)(=O)c2cc(-c3noc(C4CC4)n3)cs2)CC1	s	1020

input: # input compound: Cc1cccc(-c2nnc(C)c(N3CCCC3)n2)c1 ; wanted: its RP-LC retention time
output: 656

input: Entry under review: O=c1c2cc(-c3ccc(F)cc3)nn2ccn1Cc1ccccc1Cl . Reported RP-LC retention time?
output: 1120

input: Which RP-LC retention time value is on record for O=C(c1ccccc1Br)N1CCc2nc(-c3ccccc3)ncc2C1 ?
output: 963

input: Report RP-LC retention time for Cc1ccc(Cl)c(NS(=O)(=O)c2cc(-c3[nH]ncc3C(=O)N(C)C)oc2C)c1 please.
output: 717

input: Consider the compound CC(Cc1ccco1)NC(=O)c1ccc(N2CCCCC2)c(S(=O)(=O)N2CCCCC2)c1 (centres undefined) and give its measured RP-LC retention time.
output: 1190

input: RP-LC retention time for CCN1CCCn2cc(S(=O)(=O)N3CCN(c4ccc(Cl)cc4)CC3)cc2C1=O ?
output: 894
